Target chain: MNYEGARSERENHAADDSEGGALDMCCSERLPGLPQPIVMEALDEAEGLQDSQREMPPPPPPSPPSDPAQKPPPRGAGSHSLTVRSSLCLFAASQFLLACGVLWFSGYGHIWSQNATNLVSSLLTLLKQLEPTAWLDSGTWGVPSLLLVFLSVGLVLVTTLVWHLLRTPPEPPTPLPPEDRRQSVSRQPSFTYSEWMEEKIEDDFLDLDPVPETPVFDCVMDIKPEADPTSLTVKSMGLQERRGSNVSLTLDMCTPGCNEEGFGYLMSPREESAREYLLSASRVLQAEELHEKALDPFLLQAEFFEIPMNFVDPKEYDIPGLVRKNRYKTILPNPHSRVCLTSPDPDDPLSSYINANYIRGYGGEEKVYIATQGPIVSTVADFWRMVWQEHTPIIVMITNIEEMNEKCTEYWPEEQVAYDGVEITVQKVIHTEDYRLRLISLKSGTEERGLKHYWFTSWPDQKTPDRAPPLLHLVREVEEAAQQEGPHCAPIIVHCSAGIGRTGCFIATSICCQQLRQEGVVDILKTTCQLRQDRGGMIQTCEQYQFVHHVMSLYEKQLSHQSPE
recorded-endpoint: IC50

| given-smiles | recorded-endpoint | assay-result |
| --- | --- | --- |
| CNc1nc(-c2cccnc2)nc2ccc(-c3ccc(F)cc3F)c(C)c12 | IC50 | 1 to 10 µM |
| CNc1nc(-c2cccnc2)nc2cc(-c3ccccc3F)ccc12 | IC50 | 1 to 10 µM |
| N#Cc1cccc(-c2ccc3c(Nc4ccc(F)c(Cl)c4)nc(-c4cccnc4)nc3c2)c1 | IC50 | < 1 µM |
| COc1cccc(-c2ccc3nc(-c4cccnc4)nc(Oc4ccccc4C(N)=O)c3c2)c1 | IC50 | 1 to 10 µM |
| CNc1c(-c2cccc(C#N)c2)ccc2nc(-c3cccnc3)nc(C)c12 | IC50 | > 10 µM |
| COc1ccc2nc(-c3cccnc3)nc(Nc3ccc4sc(=O)n(C)c4c3)c2c1 | IC50 | 1 to 10 µM |
| CNc1nc(-c2ccnnc2)nc2ccc(-c3cccc(F)c3F)cc12 | IC50 | 1 to 10 µM |
| FC1(F)Oc2ccc(Nc3nc(-c4cncnc4)nc4ccccc34)cc2O1 | IC50 | > 10 µM |
